Measured pIC50, listed per entry.
molecular target: Proteasome caspase-like activity (S26 protein from RPMI8226 cells) (Homo sapiens (Human), UniProt P28072)
Sequence (P28072 whole entry): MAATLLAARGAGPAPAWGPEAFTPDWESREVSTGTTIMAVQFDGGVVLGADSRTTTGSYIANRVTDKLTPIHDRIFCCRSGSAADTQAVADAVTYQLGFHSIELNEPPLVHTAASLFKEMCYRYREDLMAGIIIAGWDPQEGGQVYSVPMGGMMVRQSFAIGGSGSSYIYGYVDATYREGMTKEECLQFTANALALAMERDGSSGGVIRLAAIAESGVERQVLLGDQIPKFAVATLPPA
pIC50: −log10 of the molar value.

>>> value_measured("CC(C)C[C@H](NC(=O)C1CC(COCc2ccccc2)=NO1)B(O)O (stereo partly drawn)")
"< 6.30"
>>> value_measured("CC(C)C[C@H](NC(=O)C1(Cc2ccccc2)CC(CNC(=O)c2ccnn2C2CCCC2)=NO1)B(O)O (stereo partly drawn)")
"< 6.00"
>>> value_measured("CC(C)C[C@H](NC(=O)C1(Cc2ccccc2)CC(CNC(=O)c2cc(C(C)(C)C)nn2C(C)C)=NO1)B(O)O (stereo partly drawn)")
"< 5.60"
>>> value_measured("CC(C)C[C@H](NC(=O)C1(Cc2ccccc2)CC([C@@H](NC(=O)c2nccc3ccccc23)C(C)C)=NO1)B(O)O (stereo partly drawn)")
"< 6.00"
>>> value_measured("CC(C)C[C@H](NC(=O)C1(Cc2ccccc2)CC([C@H](C)NC(=O)c2nccc3ccccc23)=NO1)B(O)O (stereo partly drawn)")
"< 5.60"

Entry COC[C@H](NC(=O)c1nccc2ccccc12)C1=NOC(Cc2ccccc2)(C(=O)N[C@@H](CC(C)C)B(O)O)C1 (stereo partly drawn) : reported pIC50 = ?
< 6.30

I would be grateful if you could share the reported pIC50 for CCC1(C(=O)N[C@@H](CC(C)C)B(O)O)CC(CNC(=O)c2cc(Cl)ccc2Cl)=NO1 (stereo partly drawn) .
< 5.60

Name the recorded pIC50 for CC(C)C[C@H](NC(=O)C1CC([C@H](CC(C)C)NC(=O)c2nccc3ccccc23)=NO1)B(O)O (stereo partly drawn) .
< 7.00

---

pIC50 values recorded for Proteasome chymotrypsin-like activity (S26 protein from RPMI8226 cells) (Homo sapiens)
pIC50: −log10 of the molar value.

>>> value_measured("Cc1cc(C(=O)NCC2=NOC(Cc3ccccc3)(C(=O)N[C@@H](CC(C)C)B(O)O)C2)n(C(C)C)n1 (stereo partly drawn)")
"> 8.00"
>>> value_measured("CC(=O)Nc1ccc(C2=NOC(C(=O)N[C@@H](CC(C)C)B(O)O)C2)cc1 (stereo partly drawn)")
"> 6.60"
>>> value_measured("CC(C)C[C@H](NC(=O)C1CC(c2cc(Cl)ccc2Cl)=NO1)B(O)O (stereo partly drawn)")
"> 6.60"
>>> value_measured("CC(C)C[C@H](NC(=O)C1CC(c2cnccn2)=NO1)B(O)O (stereo partly drawn)")
"> 6.00"
>>> value_measured("CC(C)C[C@H](NC(=O)C1CC(CNC(=O)c2ccccn2)=NO1)B(O)O (stereo partly drawn)")
"> 6.60"
>>> value_measured("CC(C)C[C@H](NC(=O)C1(Cc2ccccc2)CC(COCc2cccc(-c3ccccc3)c2)=NO1)B(O)O (stereo partly drawn)")
"> 8.00"
>>> value_measured("CC(C)C[C@H](NC(=O)C1(Cc2ccccc2)CC([C@H](C)NC(=O)c2nccc3ccccc23)=NO1)B(O)O (stereo partly drawn)")
"> 8.00"
>>> value_measured("CC(C)C[C@H](NC(=O)C1CC(c2ccc(Oc3ccccc3)cc2)=NO1)B(O)O (stereo partly drawn)")
"> 6.30"
>>> value_measured("O=C(NCC1=NOC(Cc2ccccc2)(C(=O)N[C@@H](Cc2ccccc2)B(O)O)C1)c1cccn2cnnc12 (stereo partly drawn)")
"> 8.00"
>>> value_measured("COc1ccc(COCC2=NOC(Cc3ccccc3)(C(=O)N[C@@H](Cc3ccccc3)B(O)O)C2)cc1 (stereo partly drawn)")
"> 7.30"

Query for Proteasome chymotrypsin-like activity (S26 protein from RPMI8226 cells) (Homo sapiens): what pIC50 does the record show for CC(=O)Nc1cccc(C(=O)NCC2=NOC(Cc3ccccc3)(C(=O)N[C@@H](CC(C)C)B(O)O)C2)c1 (stereo partly drawn) ?
> 8.00

Param readout = pIC50; param system = Proteasome chymotrypsin-like activity (S26 protein from RPMI8226 cells) (Homo sapiens); param query = CC(C)C[C@H](NC(=O)C1(Cc2c(F)cccc2F)CC(CNC(=O)c2nccc3ccccc23)=NO1)B(O)O (stereo partly drawn) ; response: value
Sequence (P28074 60-263 limits assumed): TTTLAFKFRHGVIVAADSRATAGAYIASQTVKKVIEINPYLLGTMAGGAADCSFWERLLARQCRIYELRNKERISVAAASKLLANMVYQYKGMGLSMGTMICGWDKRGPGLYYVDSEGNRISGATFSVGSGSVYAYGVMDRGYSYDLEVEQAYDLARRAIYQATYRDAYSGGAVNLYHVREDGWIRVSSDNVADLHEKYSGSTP
> 8.00

Lab note: need pIC50 for CC(C)C[C@H](NC(=O)C1(Cc2ccc(F)cc2F)CC(CNC(=O)c2nccc3ccccc23)=NO1)B(O)O (stereo partly drawn) on Proteasome chymotrypsin-like activity (S26 protein from RPMI8226 cells) (Homo sapiens), anyone have it?
> 8.00

Record Cc1cccc(COCC2=NOC(Cc3ccccc3)(C(=O)N[C@@H](CC(C)C)B(O)O)C2)n1 (stereo partly drawn) : what is its pIC50 with Proteasome chymotrypsin-like activity (S26 protein from RPMI8226 cells) (Homo sapiens)?
> 8.00

Which pIC50 is reported with Proteasome chymotrypsin-like activity (S26 protein from RPMI8226 cells) (Homo sapiens) for this entry: Cc1nc(C)c(C(=O)NCC2=NOC(Cc3ccccc3)(C(=O)N[C@@H](CC(C)C)B(O)O)C2)s1 (stereo partly drawn) ?
> 8.00

Fill in the recorded pIC50 for this molecule, with Proteasome chymotrypsin-like activity (S26 protein from RPMI8226 cells) (Homo sapiens) as test system: CC(C)[C@H](NC(=O)C1(Cc2ccccc2)CC(CNC(=O)c2cccc(Cl)n2)=NO1)B(O)O (stereo partly drawn)
> 8.00

Field: pIC50 (Proteasome chymotrypsin-like activity (S26 protein from RPMI8226 cells) (Homo sapiens)). Entry: CC(C)C[C@H](NC(=O)C1CC([C@H](CC(C)C)NC(=O)c2ccccc2)=NO1)B(O)O (stereo partly drawn)
> 7.00

Query for Proteasome chymotrypsin-like activity (S26 protein from RPMI8226 cells) (Homo sapiens): what pIC50 does the record show for CC(C)[C@H](NC(=O)C1(Cc2ccccc2)CC(CNC(=O)c2cccn3ccnc23)=NO1)B(O)O (stereo partly drawn) ?
> 8.00

# query: pIC50 | item CC(C)C[C@H](NC(=O)C1CC(c2cccc(OCc3ccccn3)c2)=NO1)B(O)O (stereo partly drawn) | system: Proteasome chymotrypsin-like activity (S26 protein from RPMI8226 cells) (Homo sapiens)
> 6.60

For the record Cc1cccc(CC2(C(=O)N[C@@H](CC(C)C)B(O)O)CC(CNC(=O)c3cc(C)nn3C3CCOCC3)=NO2)c1 (stereo partly drawn) , what value of pIC50 is listed for Proteasome chymotrypsin-like activity (S26 protein from RPMI8226 cells) (Homo sapiens)?
> 8.00

Lab note: need pIC50 with Proteasome chymotrypsin-like activity (S26 protein from RPMI8226 cells) (Homo sapiens) for entry CC(C)C[C@H](NC(=O)C1(Cc2ccccc2)CC(CNC(=O)c2ccnn2C)=NO1)B(O)O (stereo partly drawn) , please look it up.
> 7.60

Look up pIC50 with Proteasome chymotrypsin-like activity (S26 protein from RPMI8226 cells) (Homo sapiens) for this molecule: Cc1nc2ccccn2c1C(=O)NCC1=NOC(Cc2ccccc2)(C(=O)N[C@@H](CC(C)C)B(O)O)C1 (stereo partly drawn)
> 8.00

Give Proteasome chymotrypsin-like activity (S26 protein from RPMI8226 cells) (Homo sapiens) pIC50 for CC(C)C[C@H](NC(=O)C1CC(c2ccc3ccccc3c2)=NO1)B(O)O (stereo partly drawn)
> 6.30

// lookup pIC50 | system=Proteasome chymotrypsin-like activity (S26 protein from RPMI8226 cells) (Homo sapiens) | key= CC(C)C[C@H](NC(=O)C1CC(Cc2ccccc2)=NO1)B(O)O (stereo partly drawn)
> 6.60

Fill in the recorded pIC50 for this molecule, with Proteasome chymotrypsin-like activity (S26 protein from RPMI8226 cells) (Homo sapiens) as test system: CC(C)C[C@H](NC(=O)C1(Cc2ccccc2)CC(CNC(=O)c2cccc(C#N)c2)=NO1)B(O)O (stereo partly drawn)
> 8.00

State its pIC50 on Proteasome chymotrypsin-like activity (S26 protein from RPMI8226 cells) (Homo sapiens): CC(C)C[C@H](NC(=O)C1(Cc2ccccc2)CC(CNC(=O)C2CCCc3ccccc32)=NO1)B(O)O (stereo partly drawn)
> 8.00

What reported pIC50 corresponds to Cc1cccc(COCC2=NOC(Cc3ccccc3)(C(=O)N[C@@H](CC(C)C)B(O)O)C2)c1 (stereo partly drawn) on Proteasome chymotrypsin-like activity (S26 protein from RPMI8226 cells) (Homo sapiens)?
> 8.00

Request body: readout pIC50, system Proteasome chymotrypsin-like activity (S26 protein from RPMI8226 cells) (Homo sapiens), query CC(C)C[C@H](NC(=O)C1(Cc2ccccc2)CC(CNS(=O)(=O)c2cc(Cl)ccc2Cl)=NO1)B(O)O (stereo partly drawn) . Return the value.
> 8.00

Request - read-out pIC50 | tested on Proteasome chymotrypsin-like activity (S26 protein from RPMI8226 cells) (Homo sapiens) | molecule CC(C)C[C@H](NC(=O)C1(Cc2ccccc2)CC(CNC(=O)c2cccc3c2CCCC3)=NO1)B(O)O (stereo partly drawn)
> 8.00

Observed pIC50 on Proteasome chymotrypsin-like activity (S26 protein from RPMI8226 cells) (Homo sapiens) for CC(C)C[C@H](NC(=O)C1(Cc2ccccc2)CC(CNC(=O)c2cnn(C(C)C)c2)=NO1)B(O)O (stereo partly drawn) , please.
> 8.00

All values here come from patent US12570675B2.
